Data provenance: patent US20170008921A1

Assay Notes: Cyto-toxicity (MTT assay)
Type: cell-based
Experimental Setup: 1 μM; MTT, 4 days (Table 3); read-out: Cytotoxicity % viability
Where a name gives a salt, the structure may show the parent alone.
# key: entry, value: viability at 4 days, 1 µM
Result Type: viability at 4 days, 1 µM (%)

compound="CC(C)C1=C2[C@H]3CC[C@@H]4[C@@]5(C)CC[C@H](OC(=O)[C@H]6C[C@@H](C(=O)O)C6(C)C)C(C)(C)[C@@H]5CC[C@@]4(C)[C@]3(C)CC[C@@]2(NC(=O)C(C)(C)NC(=O)C2CCNCC2)CC1=O [Example 35, hydrochloride]" unit_abbrev=% test_result=77
compound="CC(C)C1=C2[C@H]3CC[C@@H]4[C@@]5(C)CC[C@H](OC(=O)[C@H]6C[C@@H](C(=O)O)C6(C)C)C(C)(C)[C@@H]5CC[C@@]4(C)[C@]3(C)CC[C@@]2(NC(=O)C(C)(C)NC(=O)[C@@H](N)C(C)C)CC1=O [Example 36, hydrochloride]" unit_abbrev=% test_result=8

* * *

Recorded measurements of log10 AUC(0-t), one per entry
Assay Notes: Single dose oral pharmacokinetic study
Type: in vivo
Experimental Setup: mouse; Mice oral PK @30 mg/kg; plasma; vehicle 10% Solutol+20% PEG; read-out: AUC0-t
Result Type: log10 AUC(0-t) (log10 of the value in µg·h/mL)

molecule="CC(C)C1=C2[C@H]3CC[C@@H]4[C@@]5(C)CC[C@H](OC(=O)[C@H]6C[C@@H](C(=O)O)C6(C)C)C(C)(C)[C@@H]5CC[C@@]4(C)[C@]3(C)CC[C@@]2(NC(=O)C(C)(C)NC(=O)c2cc(C(C)C)n[nH]2)CC1=O [Example 17]" test_result=2.52
molecule="CC(C)C1=C2[C@H]3CC[C@@H]4[C@@]5(C)CC[C@H](OC(=O)[C@H]6C[C@@H](C(=O)O)C6(C)C)C(C)(C)[C@@H]5CC[C@@]4(C)[C@]3(C)CC[C@@]2(NC(=O)C2(NC(=O)c3ccc(Cl)cc3)CCCCC2)CC1=O [Example 48]" test_result=2.68
molecule="CC(C)C1=C2[C@H]3CC[C@@H]4[C@@]5(C)CC[C@H](OC(=O)[C@H]6C[C@@H](C(=O)O)C6(C)C)C(C)(C)[C@@H]5CC[C@@]4(C)[C@]3(C)CC[C@@]2(NC(=O)C(C)(C)NC(=O)Cc2ccc(Cl)cc2)CC1=O [Example 53]" test_result=1.76
molecule="Cc1cnc(C(=O)NC(C)(C)C(=O)N[C@@]23CC[C@]4(C)[C@H](CC[C@@H]5[C@@]6(C)CC[C@H](OC(=O)[C@H]7C[C@@H](C(=O)O)C7(C)C)C(C)(C)[C@@H]6CC[C@]54C)C2=C(C(C)C)C(=O)C3)cn1 [Example 7]" test_result=2.71
molecule="CC(C)C1=C2[C@H]3CC[C@@H]4[C@@]5(C)CC[C@H](OC(=O)[C@H]6C[C@@H](C(=O)O)C6(C)C)C(C)(C)[C@@H]5CC[C@@]4(C)[C@]3(C)CC[C@@]2(NC(=O)C2(NC(=O)c3ccc(Cl)cc3)CCCC2)CC1=O [Example 46]" test_result=2.92
molecule="Cc1ccc(C(=O)NC2(C(=O)N[C@@]34CC[C@]5(C)[C@H](CC[C@@H]6[C@@]7(C)CC[C@H](OC(=O)[C@H]8C[C@@H](C(=O)O)C8(C)C)C(C)(C)[C@@H]7CC[C@]65C)C3=C(C(C)C)C(=O)C4)CC2)cn1 [Example 38]" test_result=2.06
molecule="CC(C)C1=C2[C@H]3CC[C@@H]4[C@@]5(C)CC[C@H](OC(=O)[C@H]6C[C@@H](C(=O)O)C6(C)C)C(C)(C)[C@@H]5CC[C@@]4(C)[C@]3(C)CC[C@@]2(NC(=O)C(C)(C)NC(=O)c2cnn3cccnc23)CC1=O [Example 54]" test_result=2.60
molecule="Cc1noc(C)c1C(=O)NC(C)(C)C(=O)N[C@@]12CC[C@]3(C)[C@H](CC[C@@H]4[C@@]5(C)CC[C@H](OC(=O)[C@H]6C[C@@H](C(=O)O)C6(C)C)C(C)(C)[C@@H]5CC[C@]43C)C1=C(C(C)C)C(=O)C2 [Example 19]" test_result=1.97
